Assay: Peptide gelation (tilted tube / inverted vial test, minimum gelation concentration)
Format: physicochemical
Conditions: in PBS; '/' = no gel
Square brackets hold non-standard residues; d marks the D form. Peptide text beside a SMILES is read from it. 2Nal = N[C@@H](Cc1ccc2ccccc2c1)C(=O)O; Cha = N[C@@H](CC1CCCCC1)C(=O)O
I'd appreciate it if you could supply Minimum gelation concentration (w/v % in PBS) values for the items below.
The response must be a number in w/v % with no trailing unit.

query: Which Minimum gelation concentration (w/v % in PBS) is listed for NCCCC[C@H](NC(=O)[C@H](CC1CCCCC1)NC(=O)[C@H](CCC(N)=O)NC(=O)[C@H](CC1CCCCC1)NC(=O)[C@H](CCC(=O)O)NC(=O)[C@@H](N)CC1CCCCC1)C(N)=O [compound 9, H-Cha-Glu-Cha-Gln-Cha-Lys-NH2] (H-[Cha]E[Cha]Q[Cha]K-NH2) ?
result: 2

query: Then NCCCC[C@@H](NC(=O)[C@@H](Cc1ccccc1)NC(=O)[C@@H](CCC(N)=O)NC(=O)[C@@H](Cc1ccccc1)NC(=O)[C@@H](CCC(=O)O)NC(=O)[C@H](N)Cc1ccccc1)C(N)=O [peptide 4, H-DPhe-DGlu-DPhe*-DGln-DPhe-DLys-NH2] (H-[dF][dE][dF][dQ][dF][dK]-NH2) ?
result: 3

query: Let us now turn to NCCCC[C@@H](N)C(=O)N[C@H](Cc1ccccc1)C(=O)N[C@H](CCC(N)=O)C(=O)N[C@H](Cc1ccccc1)C(=O)N[C@H](CCC(=O)O)C(=O)N[C@H](Cc1ccccc1)C(N)=O [peptide 24, H-DLys-DPhe-DGln-DPhe*-DGlu-DPhe-NH2] (H-[dK][dF][dQ][dF][dE][dF]-NH2)
result: 2

query: # iterate: NCCCC[C@H](NC(=O)[C@H](Cc1ccc2ccccc2c1)NC(=O)[C@H](CCC(N)=O)NC(=O)[C@H](Cc1ccc2ccccc2c1)NC(=O)[C@H](CCC(=O)O)NC(=O)[C@@H](N)Cc1ccc2ccccc2c1)C(N)=O [compound 13] (H-[2Nal]E[2Nal]Q[2Nal]K-NH2)
result: 2

* * *

Assay: Stability and degradability of biogels in human plasma (Example 8)
Format: in vitro ADME
Details: human, human plasma; 37° C., in solution, 14 μM
Square brackets hold non-standard residues; d marks the D form. Peptide text beside a SMILES is read from it. Dmt = Cc1cc(O)cc(C)c1C[C@H](N)C(=O)O
What half-life at 14 μM was measured for each of the following?

query: // lookup half-life at 14 μM for Cc1cc(O)cc(C)c1C[C@H](N)C(=O)N1CCC[C@H]1C(=O)N[C@@H](Cc1c[nH]c2ccccc12)C(=O)N[C@@H](Cc1ccccc1)C(=O)N[C@@H](CCC(N)=O)C(=O)N[C@@H](Cc1ccccc1)C(=O)N[C@@H](CCC(N)=O)C(=O)N[C@@H](Cc1ccccc1)C(=O)N[C@@H](CCCCN)C(N)=O [CM-58, Dmt-Pro-Trp-Phe-Gln-Phe*-Gln-Phe-Lys-NH2] (H-[Dmt]PWFQFQFK-NH2; N-terminus assumed)
result: ~12 min

query: Follow-up item: Cc1cc(O)cc(C)c1C[C@H](N)C(=O)N[C@H](CCCNC(=N)N)C(=O)N[C@@H](Cc1ccccc1)C(=O)N[C@@H](Cc1ccccc1)C(=O)N[C@@H](CCC(N)=O)C(=O)N[C@@H](Cc1ccccc1)C(=O)N[C@@H](CCC(N)=O)C(=O)N[C@@H](Cc1ccccc1)C(=O)N[C@@H](CCCCN)C(N)=O [CM-57] (H-[Dmt][dR]FFQFQFK-NH2; N-terminus assumed)
result: ~17 min

query: What do you have for Cc1cc(O)cc(C)c1C[C@H](N)C(=O)N[C@H](CCCCN)C(=O)N[C@@H](Cc1ccccc1)C(=O)N[C@@H](Cc1ccccc1)C(=O)N[C@@H](CCC(=O)O)C(=O)N[C@@H](Cc1ccccc1)C(=O)N[C@@H](CCC(N)=O)C(=O)N[C@@H](Cc1ccccc1)C(=O)N[C@@H](CCCCN)C(N)=O [CM-53] (H-[Dmt][dK]FFEFQFK-NH2; N-terminus assumed) ?
result: ~18 min

From: patent US12383628B2
